Recorded values, source patent US20190315814A1.

Recorded MIC VRE ATCC 700221 for the following compounds
test system: VRE Enterococcus faecium
measured attribute: MIC VRE ATCC 700221 (µg/mL)

>>> recorded_value("C=C1NC(=O)[C@H](Cc2c[nH]c3ccccc23)NC(=O)[C@H](NC(=O)[C@H](CCCCN)NC(=O)[C@@H](N)[C@@H](C)CC)CSC[C@@H](C(=O)N[C@H]2C(=O)N3CCC[C@H]3C(=O)NCC(=O)N[C@H](C(=O)N[C@@H](C)C(=O)N[C@@H](CC(N)=O)C(=O)NC(=CC)C(=O)NCC(=O)N[C@@H]3CSC[C@@H]4NC(=O)[C@H](Cc5ccc(O)cc5)NC(=O)[C@@H](CS/C=C\\NC4=O)NC(=O)[C@H](CC(N)=O)NC(=O)[C@H](Cc4ccccc4)NC3=O)CS[C@H]2C)NC(=O)[C@H](CC(C)C)NC1=O [F1I R13N]")
32
>>> recorded_value("C=C1NC(=O)[C@H](Cc2c[nH]c3ccccc23)NC(=O)[C@H](NC(=O)[C@H](CCCCN)NC(=O)[C@@H](N)CO)CSC[C@@H](C(=O)N[C@H]2C(=O)N3CCC[C@H]3C(=O)NCC(=O)N[C@H](C(=O)N[C@@H](C)C(=O)N[C@@H](CC(N)=O)C(=O)NC(=CC)C(=O)NCC(=O)N[C@@H]3CSC[C@@H]4NC(=O)[C@H](Cc5ccc(O)cc5)NC(=O)[C@@H](CS/C=C\\NC4=O)NC(=O)[C@H](CC(N)=O)NC(=O)[C@H](Cc4ccccc4)NC3=O)CS[C@H]2C)NC(=O)[C@H](CC(C)C)NC1=O [F1S R13N]")
64

---

details: simulated gi fluid, FaSSIF + 1% pancreatin + 3 μg/ml trypsin + 3 μg/ml chymotrypsin half-life
measured attribute: half-life (h)

>>> recorded_value("C=C1NC(=O)[C@H](CCSC)NC(=O)[C@H](NC(=O)[C@H](CCCCN)NC(=O)[C@@H](N)[C@@H](C)CC)CSC[C@@H](C(=O)N[C@H]2C(=O)N3CCC[C@H]3C(=O)NCC(=O)N[C@H](C(=O)N[C@@H](C)C(=O)N[C@@H](C)C(=O)NC(=CC)C(=O)NCC(=O)N[C@@H]3CSC[C@@H]4NC(=O)[C@H](Cc5ccc(O)cc5)NC(=O)[C@@H](CS/C=C\\NC4=O)NC(=O)[C@H](CC(N)=O)NC(=O)[C@H](Cc4ccccc4)NC3=O)CS[C@H]2C)NC(=O)[C@H](CC(C)C)NC1=O [F1I W4M R13A]")
5.82

---

Recorded half-life for the following compounds
conditions: simulated gi fluid, FaSSIF only half-life
measured attribute: half-life

>>> recorded_value("C=C1NC(=O)[C@H](Cc2c[nH]c3ccccc23)NC(=O)[C@H](NC(=O)[C@H](CCCCN)NC(=O)[C@@H](N)[C@@H](C)CC)CSC[C@@H](C(=O)N[C@H]2C(=O)N3CCC[C@H]3C(=O)NCC(=O)N[C@H](C(=O)N[C@@H](C)C(=O)N[C@@H](C)C(=O)NC(=CC)C(=O)NCC(=O)N[C@@H]3CSC[C@@H]4NC(=O)[C@H](Cc5ccc(O)cc5)NC(=O)[C@@H](CS/C=C\\NC4=O)NC(=O)[C@H](CC(N)=O)NC(=O)[C@H](Cc4ccccc4)NC3=O)CS[C@H]2C)NC(=O)[C@H](CC(C)C)NC1=O [F1I R13A]")
"> 720 min"
>>> recorded_value("C=C1NC(=O)[C@H](Cc2c[nH]c3ccccc23)NC(=O)[C@H](NC(=O)[C@H](CCCCN)NC(=O)[C@@H](N)[C@@H](C)CC)CSC[C@@H](C(=O)N[C@H]2C(=O)N3CCC[C@H]3C(=O)NCC(=O)N[C@H](C(=O)N[C@@H](C)C(=O)N[C@@H](CC(N)=O)C(=O)NC(=CC)C(=O)NCC(=O)N[C@@H]3CSC[C@@H]4NC(=O)[C@H](Cc5ccc(O)cc5)NC(=O)[C@@H](CS/C=C\\NC4=O)NC(=O)[C@H](CC(N)=O)NC(=O)[C@H](Cc4ccccc4)NC3=O)CS[C@H]2C)NC(=O)[C@H](CC(C)C)NC1=O [F1I R13N]")
"> 720 min"
>>> recorded_value("C=C1NC(=O)[C@H](Cc2c[nH]c3ccccc23)NC(=O)[C@H](NC(=O)[C@H](CCCCN)NC(=O)[C@@H](N)CC(C)C)CSC[C@@H](C(=O)N[C@H]2C(=O)N3CCC[C@H]3C(=O)NCC(=O)N[C@H](C(=O)N[C@@H](C)C(=O)N[C@@H](C)C(=O)NC(=CC)C(=O)NCC(=O)N[C@@H]3CSC[C@@H]4NC(=O)[C@H](Cc5ccc(O)cc5)NC(=O)[C@@H](CS/C=C\\NC4=O)NC(=O)[C@H](CC(N)=O)NC(=O)[C@H](Cc4ccccc4)NC3=O)CS[C@H]2C)NC(=O)[C@H](CC(C)C)NC1=O [F1L R13A]")
"> 720 min"
>>> recorded_value("C=C1NC(=O)[C@H](Cc2c[nH]c3ccccc23)NC(=O)[C@H](NC(=O)[C@H](CCCCN)NC(=O)[C@H](C)N)CSC[C@@H](C(=O)N[C@H]2C(=O)N3CCC[C@H]3C(=O)NCC(=O)N[C@H](C(=O)N[C@@H](C)C(=O)NCC(=O)NC(=CC)C(=O)NCC(=O)N[C@@H]3CSC[C@@H]4NC(=O)[C@H](Cc5ccc(O)cc5)NC(=O)[C@@H](CS/C=C\\NC4=O)NC(=O)[C@H](CC(N)=O)NC(=O)[C@H](Cc4ccccc4)NC3=O)CS[C@H]2C)NC(=O)[C@H](CC(C)C)NC1=O [F1A R13G]")
"299 min"
